Target: FGFR1 (Homo sapiens, UniProt P11362)
Construct: purchased DiscoveRx Corporation
Sequence (P11362 22-822): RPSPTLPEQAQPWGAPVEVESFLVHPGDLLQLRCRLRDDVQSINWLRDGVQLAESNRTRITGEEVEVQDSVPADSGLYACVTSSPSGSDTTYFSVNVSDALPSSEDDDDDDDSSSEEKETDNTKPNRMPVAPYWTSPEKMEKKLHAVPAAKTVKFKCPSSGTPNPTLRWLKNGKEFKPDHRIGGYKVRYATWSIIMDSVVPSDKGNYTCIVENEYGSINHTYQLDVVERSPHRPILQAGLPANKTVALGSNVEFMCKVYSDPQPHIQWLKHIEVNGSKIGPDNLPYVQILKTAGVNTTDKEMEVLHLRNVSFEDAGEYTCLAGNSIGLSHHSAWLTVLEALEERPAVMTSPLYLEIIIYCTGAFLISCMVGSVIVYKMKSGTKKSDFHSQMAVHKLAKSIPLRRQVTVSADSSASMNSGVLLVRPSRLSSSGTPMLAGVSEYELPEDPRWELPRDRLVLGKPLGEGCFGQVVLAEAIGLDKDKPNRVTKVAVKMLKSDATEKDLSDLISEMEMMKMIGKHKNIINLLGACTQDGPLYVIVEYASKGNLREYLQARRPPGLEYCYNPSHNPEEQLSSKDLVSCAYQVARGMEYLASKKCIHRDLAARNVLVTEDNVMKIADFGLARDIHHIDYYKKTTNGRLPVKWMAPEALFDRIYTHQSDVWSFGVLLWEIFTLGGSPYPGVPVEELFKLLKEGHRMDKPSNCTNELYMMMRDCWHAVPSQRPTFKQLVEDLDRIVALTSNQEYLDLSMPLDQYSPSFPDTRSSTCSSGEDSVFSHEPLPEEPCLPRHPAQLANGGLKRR
Assay: Enzyme binding assay (KINOMEscan) FGFR1
Details: FGFR1_pKd, pKd = -log Kd (M)
property: Kd (M)
# output: bare number, implied unit M

Reference set, count: 8
Specify Kd for COc1cc(OC)c(F)c(N(CCO)c2ccc3ncn(C4CCNCC4)c(=O)c3c2)c1F [Compound 46] and stop. 1e-07

Specify Kd for COc1cc(OC)cc(N(CCCO)c2ccc3ncn(C4CCOCC4)c(=O)c3c2)c1 [Compound 66] and stop. 1.26e-06

Specify Kd for COc1cc(OC)c(F)c(N(CCCO)c2ccc3ncn(C4CCNCC4)c(=O)c3c2)c1 [Compound 54] and stop. 7.94e-07

Specify Kd for CNCCN(c1ccc2ncn(C3CCNCC3)c(=O)c2c1)c1c(F)c(OC)cc(OC)c1F [Compound 57] and stop. 3.16e-08

Specify Kd for COc1cc(OC)c(F)c(N(CCCO)c2ccc3ncn(C4CCNCC4)c(=O)c3c2)c1F [Compound 53] and stop. 5.01e-08

Specify Kd for COc1cc(OC)cc(N(Cc2ncc[nH]2)c2ccc3ncn(C4CCOCC4)c(=O)c3c2)c1 [Compound 69] and stop. 1.58e-07

Specify Kd for COc1cc(OC)c(F)c(N(CCCNC(C)C)c2ccc3ncn(C4CCNCC4)c(=O)c3c2)c1 [Compound 61′] and stop. 5.01e-08

Specify Kd for COc1cc(OC)cc(/C(=C\C#N)c2ccc3ncn(-c4cnn(C)c4)c(=O)c3c2)c1 [Compound 49] and stop. 2e-06

New cases:
Specify Kd for COc1cc(OC)c(F)c(N(CCO)c2ccc3ncn(-c4cncnc4)c(=O)c3c2)c1F [Compound 76] and stop. 6.31e-08

Specify Kd for COc1cc(OC)c(F)c(N(CCO)c2ccc3ncn(-c4cccnc4)c(=O)c3c2)c1 [Compound 30] and stop. 2.51e-07

Specify Kd for COc1cc(OC)c(F)c(N(CCCNC(C)C)c2ccc3ncn(C4CCOCC4)c(=O)c3c2)c1 [Compound 72] and stop. 7.94e-09

Specify Kd for COc1cc(OC)c(F)c(N(CCO)c2ccc3ncn(-c4cncnc4)c(=O)c3c2)c1 [Compound 74] and stop. 7.94e-07

Specify Kd for COc1cc(OC)cc(N(Cc2nccn2S(=O)(=O)N(C)C)c2ccc3ncn(C4CCOCC4)c(=O)c3c2)c1 [Compound 68] and stop. 1.26e-06

###

Below: a set of entries, each annotated with reported Kd.
Target: VEGFR2 (Homo sapiens)
Construct: purchased DiscoveRx Corporation
Sequence (P35968 20-1356): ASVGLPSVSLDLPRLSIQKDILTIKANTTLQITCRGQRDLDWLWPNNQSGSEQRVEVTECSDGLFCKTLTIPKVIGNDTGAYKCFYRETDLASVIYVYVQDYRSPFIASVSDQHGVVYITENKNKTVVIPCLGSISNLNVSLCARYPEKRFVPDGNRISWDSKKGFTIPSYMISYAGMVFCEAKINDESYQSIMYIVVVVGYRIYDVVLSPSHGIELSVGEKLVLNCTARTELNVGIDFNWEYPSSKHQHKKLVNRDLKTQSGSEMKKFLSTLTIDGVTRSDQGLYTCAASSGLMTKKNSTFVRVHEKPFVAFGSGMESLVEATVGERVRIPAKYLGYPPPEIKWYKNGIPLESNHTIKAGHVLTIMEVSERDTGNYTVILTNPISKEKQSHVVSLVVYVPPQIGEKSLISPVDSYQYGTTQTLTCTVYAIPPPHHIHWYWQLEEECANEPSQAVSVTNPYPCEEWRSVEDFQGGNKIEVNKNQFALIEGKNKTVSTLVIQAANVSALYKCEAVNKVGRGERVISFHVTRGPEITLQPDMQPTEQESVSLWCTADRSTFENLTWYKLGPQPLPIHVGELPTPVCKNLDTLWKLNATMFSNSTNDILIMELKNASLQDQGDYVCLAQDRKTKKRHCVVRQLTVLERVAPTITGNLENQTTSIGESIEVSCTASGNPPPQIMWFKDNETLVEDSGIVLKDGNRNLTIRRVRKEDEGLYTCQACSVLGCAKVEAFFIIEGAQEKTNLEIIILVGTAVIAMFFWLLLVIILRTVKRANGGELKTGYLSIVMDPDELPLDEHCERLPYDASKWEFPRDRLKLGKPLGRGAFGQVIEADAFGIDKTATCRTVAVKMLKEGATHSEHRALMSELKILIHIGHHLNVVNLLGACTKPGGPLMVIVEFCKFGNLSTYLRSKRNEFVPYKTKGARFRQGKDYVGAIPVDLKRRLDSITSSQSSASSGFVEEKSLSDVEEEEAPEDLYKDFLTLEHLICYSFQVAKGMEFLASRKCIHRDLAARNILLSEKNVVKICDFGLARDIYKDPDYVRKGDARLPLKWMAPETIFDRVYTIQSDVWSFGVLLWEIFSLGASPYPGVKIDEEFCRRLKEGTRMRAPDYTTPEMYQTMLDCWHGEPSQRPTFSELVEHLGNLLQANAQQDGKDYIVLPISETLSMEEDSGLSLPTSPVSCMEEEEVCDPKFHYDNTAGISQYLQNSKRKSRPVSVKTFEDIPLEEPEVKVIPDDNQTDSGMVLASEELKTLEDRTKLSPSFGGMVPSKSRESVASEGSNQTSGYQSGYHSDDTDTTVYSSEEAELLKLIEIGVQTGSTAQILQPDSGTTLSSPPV
Experiment: Enzyme binding assay (KINOMEscan) VEGFR2
Conditions: pKd = -log Kd (M), read-out: VEGFR2_pKd (converted)

Specify Kd for COc1cc(OC)cc(N(Cc2ncc[nH]2)c2ccc3ncn(C4CCNCC4)c(=O)c3c2)c1 and stop. > 3.16e-06 M

Specify Kd for COc1cc(OC)c(F)c(N(CCO)c2ccc3ncn(C4CCNCC4)c(=O)c3c2)c1F and stop. > 3.16e-06 M

###

Biological target: Ba/F3-FGFR3-transfected cells (Homo sapiens, UniProt P22607, cells depend on it, form not given)
Construct: BAF3-FGFR3 (MIN IL3 pIC50); other: minus IL3; 24 hours, Alamar Blue
Sequence (P22607 whole entry, looked up, change not shown): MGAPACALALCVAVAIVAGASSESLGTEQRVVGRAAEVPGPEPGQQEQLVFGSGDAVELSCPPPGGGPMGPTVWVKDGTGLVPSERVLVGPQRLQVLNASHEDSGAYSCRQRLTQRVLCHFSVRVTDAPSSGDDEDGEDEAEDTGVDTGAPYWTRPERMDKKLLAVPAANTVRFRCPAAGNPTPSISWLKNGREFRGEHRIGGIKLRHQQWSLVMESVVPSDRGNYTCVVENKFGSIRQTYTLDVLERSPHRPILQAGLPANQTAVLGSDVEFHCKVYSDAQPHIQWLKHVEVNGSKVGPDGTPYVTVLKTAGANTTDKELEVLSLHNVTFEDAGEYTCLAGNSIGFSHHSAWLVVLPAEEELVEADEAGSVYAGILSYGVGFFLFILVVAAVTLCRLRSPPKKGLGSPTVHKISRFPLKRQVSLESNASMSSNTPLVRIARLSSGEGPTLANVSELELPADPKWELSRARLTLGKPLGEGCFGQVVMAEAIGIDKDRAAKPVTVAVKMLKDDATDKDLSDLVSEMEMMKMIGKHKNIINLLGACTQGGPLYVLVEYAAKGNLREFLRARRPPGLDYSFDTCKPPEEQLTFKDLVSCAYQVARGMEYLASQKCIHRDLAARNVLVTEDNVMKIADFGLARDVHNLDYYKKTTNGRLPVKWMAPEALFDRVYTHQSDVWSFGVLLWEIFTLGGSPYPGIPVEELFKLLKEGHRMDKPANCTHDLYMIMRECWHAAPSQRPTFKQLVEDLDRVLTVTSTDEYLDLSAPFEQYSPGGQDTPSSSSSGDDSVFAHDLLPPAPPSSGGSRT
Assay: Ba/F3-FGFR3 (minus IL3 or plus IL3) cellular proliferation assay
Type: cell-based
Details: 24 hours, Alamar Blue
property: BAF3-FGFR3 (MIN IL3 pIC50)

Reference set, count: 3
Specify BAF3-FGFR3 (MIN IL3 pIC50) for COc1cc(OC)c(Cl)c(N(CCNC(C)C)c2ccc3ncn(-c4cnn(C)c4)c(=O)c3c2)c1Cl [Compound 11] and stop. 7.3

Specify BAF3-FGFR3 (MIN IL3 pIC50) for CNCCN(c1ccc2ncn(-c3cnn(C)c3)c(=O)c2c1)c1c(F)c(OC)cc(OC)c1F [Compound 20] and stop. 7.6

Specify BAF3-FGFR3 (MIN IL3 pIC50) for COc1cc(OC)c(F)c(N(CCNC(C)C)c2ccc3ncn(-c4cnn(C)c4)c(=O)c3c2)c1F [Compound 19] and stop. 8.6

New cases:
Specify BAF3-FGFR3 (MIN IL3 pIC50) for COc1cc(OC)cc(N(CCNC(C)C)c2ccc3ncn(-c4cnn(C)c4)c(=O)c3c2)c1 [Compound 9] and stop. ~7.09
